# Tested on: Human Whole Blood
# Assay Name: Cytokine release in human whole blood (ELISA)
# Type: cell-based
# Cond: TNF-alpha release; compounds tested at 10 μM; compared to 10 ng/ml LPS; 3-hour incubation
Form field: TNF-alpha release in whole blood at 10 μM compound (% of 10 ng/ml LPS response) (one value per entry).
Assay Metric: TNF-alpha release in whole blood at 10 μM compound (% of 10 ng/ml LPS response)

Compound	Observed
CCCCCC/C=C\CCCC(=O)O[C@H](CCCCCCC)CC(=O)NC(COCC[C@H](O)CCCCCCC)COP(=O)([O-])OCCNC(=O)C1OC(C)(C)OC1C(=O)NCCOP(=O)([O-])OCC(COCC[C@H](O)CCCCCCC)NC(=O)C[C@@H](CCCCCCC)OC(=O)CCC/C=C\CCCCCC.[Na+].[Na+] (stereo partly drawn)	0 % of LPS
CCCCCCCCCCCCCC(=O)O[C@@H](COCC[C@@H](CCCCCCC)OC(=O)CCCCCCCCCCC)COP(=O)([O-])OCCNC(=O)CC(=O)NCCOP(=O)([O-])OC[C@H](COCC[C@@H](CCCCCCC)OC(=O)CCCCCCCCCCC)OC(=O)CCCCCCCCCCCCC.[Na+].[Na+]	2 % of LPS
CCCCCC/C=C\CCCC(=O)O[C@H](CCCCCCC)CCOCC(COP(=O)([O-])OCCNC(=O)C(Cc1ccc(OCCN)cc1)C(=O)NCCOP(=O)([O-])OCC(COCC[C@@H](CCCCCCC)OC(=O)CCC/C=C\CCCCCC)NC(=O)CCCCCCCCCCCCC)NC(=O)CCCCCCCCCCCCC.[Na+].[Na+] (stereo partly drawn)	129 % of LPS

* * *

# Test system: Human Whole Blood
# Assay Name: Cytokine release in human whole blood (ELISA)
# Type: cell-based
# Cond: TNF-alpha release; compounds tested at 10 μM; compared to 10 ng/ml LPS; 3-hour incubation
Form field: TNF-alpha release in whole blood at 10 μM compound (% of 10 ng/ml LPS response) (one value per entry).
Assay Metric: TNF-alpha release in whole blood at 10 μM compound (% of 10 ng/ml LPS response)

Compound	Target Or System	Observed
CCCCCC/C=C\CCCC(=O)O[C@H](CCCCCCC)CCOCC(COP(=O)(O)OCCNC(=O)C(Cc1ccc(OCCNC(=O)CCCCC(=O)O)cc1)C(=O)NCCOP(=O)(O)OCC(COCC[C@@H](CCCCCCC)OC(=O)CCC/C=C\CCCCCC)NC(=O)CCCCCCCCCCCCC)NC(=O)CCCCCCCCCCCCC (stereo partly shown)	Human Whole Blood	65 % of LPS
CCCCCCCCCCCC(=O)CC(=O)NC(COCC[C@@H](CCCCCCC)OC(=O)CCCCCCCCCCC)COP(=O)([O-])OCCNC(=O)NCCOP(=O)([O-])OCC(COCC[C@@H](CCCCCCC)OC(=O)CCCCCCCCCCC)NC(=O)CC(=O)CCCCCCCCCCC.[Na+].[Na+] (stereo partly shown)	Human Whole Blood	162 % of LPS
CCCCCC/C=C\CCCC(=O)O[C@H](CCCCCCC)CCOCC(COP(=O)([O-])OCCNC(=O)CC(=O)NCCOP(=O)([O-])OCC(COCC[C@@H](CCCCCCC)OC(=O)CCC/C=C\CCCCCC)NC(=O)C[C@H](O)CCCCCCCCCCC)NC(=O)C[C@H](O)CCCCCCCCCCC.[Na+].[Na+] (stereo partly shown)	Human Whole Blood	113 % of LPS
CCCCCC/C=C\CCCC(=O)O[C@H](CCCCCCC)CCOCC(COP(=O)([O-])OCCNC(=O)CC(=O)NCCOP(=O)([O-])OCC(COCC[C@@H](CCCCCCC)OC(=O)CCC/C=C\CCCCCC)NC(=O)CCCCCCCCCCC)NC(=O)CCCCCCCCCCC.[Na+].[Na+] (stereo partly shown)	Human Whole Blood	105 % of LPS
CCCCCC/C=C\CCCC(=O)O[C@H](CCCCCCC)CCOCC(COP(=O)([O-])OCCNC(=O)C(Cc1ccc(OCCNC(=O)OC(C)(C)C)cc1)C(=O)NCCOP(=O)([O-])OCC(COCC[C@@H](CCCCCCC)OC(=O)CCC/C=C\CCCCCC)NC(=O)CC(=O)CCCCCCCCCCC)NC(=O)CC(=O)CCCCCCCCCCC.[Na+].[Na+] (stereo partly shown)	Human Whole Blood	69 % of LPS
CCCCCC/C=C\CCCC(=O)O[C@H](CCCCCCC)CCOCC(COP(=O)([O-])OCCNC(=O)C(CCCCNC(=O)OC(C)(C)C)C(=O)NCCOP(=O)([O-])OCC(COCC[C@@H](CCCCCCC)OC(=O)CCC/C=C\CCCCCC)NC(=O)CCCCCCCCCCCCC)NC(=O)CCCCCCCCCCCCC.[Na+].[Na+] (stereo partly shown)	Human Whole Blood	103 % of LPS
CCCCCCCCCCCCCC(=O)O[C@@H](COCC[C@@H](CCCCCCC)OC(=O)CCCCCCCCCCC)COP(=O)([O-])OCCNC(=O)NCCOP(=O)([O-])OC[C@H](COCC[C@@H](CCCCCCC)OC(=O)CCCCCCCCCCC)OC(=O)CCCCCCCCCCCCC.[Na+].[Na+]	Human Whole Blood	15 % of LPS
